The measurements presented in this section are drawn from the nanobody polyreactivity screen of Harvey et al. (2022).

Assay: yeast display, Sf9 membrane polyspecificity reagent, FACS + sequencing; frameworks hold sequencing errors
metric: polyreactivity (PSR sort gate)

>>> reported_result("QVQLVESGGGLVQAGGSLRLSCAAYGSTFTSYAMGWYRQAPGKERELVAAISSSGTRTYYADSVKGRFTISRDNAKNTVYLQMNSLKPEDTAVYYCAKASPYSKLYYWGQGTQGTVSS")
"high polyreactivity"
>>> reported_result("QVQLVESGGGLVQAGGSLRLSCAASGRTFVKNAMGWYRQAPGKERELVAVISQSGGSTYYADSVKGRFTISRDNAKNTVYLQMNCLKPEDTAVYYCAARYSYYRQGDSWYNYNYWGQGTQVTVSS")
"high polyreactivity"

* * *

Test: yeast display, Sf9 membrane polyspecificity reagent, FACS + sequencing; frameworks hold sequencing errors
metric: polyreactivity (PSR sort gate)

>>> reported_result("QVQLVESGAGLVQAGGSLRLSCAASGRTIGVYAMGWYRQAPGKERELVAAISWSGGTTYYADSVKGRFTISRDNAKNTVYLQMNSLKPEDTAVYYCAADSYTEVDYWGQGTQVTVSS")
"low polyreactivity"
>>> reported_result("QVKLVESGGALVQAGGSLRLSCAASGRNFSSYAMGRYRQAPGKERYLVARISSSGGGTSYADSVKGRFTISRDNAKNTVYLQMNSLKPEDTAVYYCAAEDQYYRYFFSYEYWGQGTQVTVSS")
"high polyreactivity"
>>> reported_result("QVQLVESGGGLVQAGGSLRLSCAASGNTFDIYTMGWYRPAPGKERELVATISSGGRTNYADSVKGRFTISRDNAKNTVYLQMNSLNPEDTAVYYCAKNLRYVWWYDHFRPYGYWGQGTQVTVSS")
"high polyreactivity"
>>> reported_result("QVQLVESGGGLVQAGGSLRLSCAASGRIFKYYARGWYRQAPGKERELVAAISGSGGTHYADSVKGRFTISRDNAKNTVYLQMNSLKPEDTAVYYCAVRWRGNGQGGSWGQGTQVTVSS")
"high polyreactivity"
>>> reported_result("QVQLVESGGGLVQAGGSLRLSCAASGFIFYRYAMGWYRQAPGKERELVARISWNGGITYYADSVKGRFTISRDNAKNTVYLQMNILKPEDTAVYYCNKPDPYGLYTYEYWGQGTQVTVSS")
"low polyreactivity"

Please look at the items below and tell me polyreactivity (PSR sort gate) for each one, in order.
1. QVQLVESGGGLVQAGGSLRLSCAASGRTFTYYSMGWYRQAPGKERELVAAISSGGRTNYADSVKGRFTISRDNAKNTVYLQMNSLKPEDTAVYYCAADGTTFRNRYYFHRMDFWGQGTQVTVSS
2. QVQLVESGGRLVQAGASLRLSCAASGFTLHWYAMGWYRQAPGKERELVASITNTGRTYYADSVKGRFTISRDNAKNTVYLQINILKPEDTAVYYCAAGTQYSHYYVADYCRDYWGQGTQVTVSS
3. QVQLVDSGGGLVQAGGSLRLSCAASGSTFYLYAMGWYRQAPGKERELVAVITTDGSTTYADSVKGRFTISRDNATNTVYLEMNSLKPEDTAVYFCAAYGGNGQYYSQYDYWGQGTQVTVSS

Output line:
high polyreactivity
high polyreactivity
low polyreactivity

Batch request: polyreactivity (PSR sort gate) for each of the following sequences.
1. QVQLVESGGGLVQAGGSLRLSCAASGIIFSIYAMGWYRQAPGKERELVAAISGRGGRTYYADSVKGRFTISRDNAKNTVYLQMNSLKPVDTAVYYCNAEYHDLYDYWGQGTQVTVSS
2. QVQLQESGGGLVQAGGILRLSCAACGNIFPSAVMGWYRQALGKEREFVATINSGSNTYYADSVNGRFSISRDNAKHTVYLHRNSLKLQDTAVYYCAAYFKLPAWHTSWGQGTQVSVSS
3. QVQLVESGGGLVQAGGSLRLSCAASGSNFDTYAMGWYRQAPGKESELVAAITRRAGSTYYADSVKGRFTISRDNAKYTVYLQMNSLKPEDTAVYYCAADFRYPDNYGGYDYWGQGTQVTVSS
4. QVQLVESGGGLVQAGGSLRLSCAASGSTFNNAMGWYRQAPGKERELVAAITRSGVRTYYADSVKGRFTISRDNAKNTVYLQMNSLKPEDTAVYYCAAGFQSRRYYAGYEDWGQGTQVSVSS
5. QVQLVESGGGLVQAGGSLRLSCAASGSTFSDYTMGWSRQAPGKDRVLVAALNAGGSTNYADSVKGRFTISRDNAKNTVYLQMNSLKPEDTAVYYSNADSSYLANGYWDPDYTPYDSWGQGTQVTVSS

Output line:
["low polyreactivity", "low polyreactivity", "low polyreactivity", "high polyreactivity", "low polyreactivity"]

* * *

Test: yeast display, Sf9 membrane polyspecificity reagent, FACS + sequencing; frameworks hold sequencing errors
metric: polyreactivity (PSR sort gate)

>>> reported_result("QVQLVESGGGLVQAGGSLRLSCAASGSIFTGYAMGWYRQARGKESELVAAIDDSGDSTYYADSVKVRFTISRDNATNTVYLQMNSLKPEDTAVYYSKAEYRVNKEYDYWGQGTQVTVSS")
"low polyreactivity"
>>> reported_result("QVQLVESGGGLVQAGGSLRLSCAASGSIISFNTMGWYRQPPGKEREFVASIRRRGGSTYYADSVKGRFTISRDNAKNTVYLQMNSLKPEDTAVYYCAKANPHYVISDGVYHPRGGYWGQGTQVTVSS")
"low polyreactivity"

* * *

Test: yeast display, Sf9 membrane polyspecificity reagent, FACS + sequencing; frameworks hold sequencing errors
metric: polyreactivity (PSR sort gate)

Use these answered entries as a reference point.
>>> reported_result("QVQLVESGGGLVQAGGSLRLSCAASGTIFYDNDMGWYRQAPGKERELVAAISWSASDTYYADSVKGRFTISRDNAKNTVYLHINILKPEDTAVYYCNAEVYVWYFVYSALDYWGLGTQVTVSS")
"low polyreactivity"
>>> reported_result("QGQLVESGGGLVQAGGSLRLICAASGFIFQANALGWYRQAPGQERELVAAITSSVGRTYYADSVKGRFTISRDNAKNTVYLQMNSLKPEYTEVYYCNAGGHLEMNYWGQGTQVTVSS")
"low polyreactivity"
>>> reported_result("QVQLVESGGGLVQAGGSLRLSCAASGITFRYYAMGWYRQAPGKERELVATISRGVRTNYADSVKGRFTISRDNAKNTVYLQMNSLKPEDTAVYYCNADYASARRYDYWGQGTQVTVSS")
"high polyreactivity"
>>> reported_result("QVQLVESGGGLVQAGGSLRLSCAASGRTFAYNTMGWYRQAPGKERELVAAITWSGGGTYYADSVKGRFTISRDNAKNTVYLQMNRLKPEDTAVYFCAVEYASPRARYRYYYWGQGTQVSVSS")
"low polyreactivity"
>>> reported_result("QVQLVVSGGGLVQAGGSLRLSCAASGRIFVANAMGWYRQAPGKERELVAAISGRGSRTYYADSVKGRFTISRDNAKNTVYLQMNSLKPEDTAVYYCAARYRYDGRYDYWGQGTQVTVSS")
"high polyreactivity"
>>> reported_result("QVQLVESGGGLVQAGGSLRFICAASGGISSSNAMGWYRQAHGKERELVAGINSRGGSTYADSVKGRFTISRANAKNTVYLQMNSLKPEDTAVYYCAAAPTYKWRRKNYDYWGQGTQVTVAS")
"high polyreactivity"

The following sequences each have a reported value; give each one's polyreactivity (PSR sort gate).
1. QVQLEESGGGLVQAGGSLRLSCAASGSIFYQYDMGWYRQAPGKERELVAAITQRGGRTYYADSVKGRFTISRDNAKNTVDLKMNSLKPELTAVYYCAADNDSYWGYVYWGQGTQVTVSS
2. QVQLVESGGGLVQAGGSLRLSCAASGRTFDINDMGWYRQAPGKEREFVAAIDWSGGYTYYADSVKGRFIISRDNAKNTVYLQMNSQKPEDTAVYYCNARRKRSYDYWGQGTQGTVSS

Output line:
1. high polyreactivity
2. low polyreactivity

* * *

Assay: yeast display, Sf9 membrane polyspecificity reagent, FACS + sequencing; frameworks hold sequencing errors
metric: polyreactivity (PSR sort gate)

Here is how some sequences turned out for polyreactivity (PSR sort gate).
>>> reported_result("QVQLVESGGGLVQAGGSLRLSCAASGSPFGFNAMGWYRQAPGKERELVAAISRSGTRTYYADSVKGRFTISRDNEKNTVYLQMNSQKPEDTAVYFCAADSTLSRYDYWGQGTQVTVSS")
"high polyreactivity"
>>> reported_result("QVQHVESGRGLVQAGRSLRLSCAASGRIFQRYAMGWYRQAPGKERELVAVITKRGGNTYYADSVKGRFTISRDNAKNTVYLQMNSLKPEDTAVYYCASRSGRSTGDYWGQGTQVTVSS")
"high polyreactivity"
>>> reported_result("QVQLEESGGGLVQAGGSLRLSCAASGRIGAYAMGWYRQAPGKERELVAGITSNGASTYYADSVKGRFTISRDNAKNTVYLQMNSLKPEDTAVYYCAARYRFQRGGYYYWGQGTQVTVSS")
"high polyreactivity"
>>> reported_result("QVQLVESGGGLVLAGGSLRLSCAASGSTFDTYAMGWYRQAPGKERELVAAITSGGITNYADSVKGRFTISRDNAKNTVYVQMNSLKPEDTAVYYCAKEGFWPRQARRLDYWGQGTQVTVSS")
"low polyreactivity"
>>> reported_result("QVQLVESGGGLVQAGGSLRLSCAASGSTFQFYAMGWYRQAPGKEREFVAGIRSSGGTYYADSVKGRFTISRDNAKNTVYLQMNSLKPEDTAVYYCAAVSSYSPYRRTYYYWGQGTQVTVSS")
"high polyreactivity"
>>> reported_result("QVQLVESGGGLVQAGGSLRLSCAASGRIFYYYAMGWYRQAPGKERELVAGIDSGDSTNYADSVKGRFTISRDNAKYTVYLQMNSLKPEDTAVYYCAALHFGGYFSYYPYYYWGQGTQVTVSS")
"low polyreactivity"
>>> reported_result("QVQLVESGGGLVQAGGSLRLSCAASGNTFSYYAMGRYRQSPGKEREFVAAIRKSGASTYYADTVKGRFTISRDNAKNTVYLQINSLKPEDTALYYCAADGQVSYALGFDYWGQGTQVTVSS")
"high polyreactivity"
>>> reported_result("QVQLVESGGGLVQAGGSLRLSCAAYGRIFNEYAKGWYRQAPGKERELVAAITYSDDSTYYADSVKGRFTISRDNAKNTVYLQLNSLKPEDTAVYYCNADTPVWDGHAYPVDYWGQGTQVTVSS")
"low polyreactivity"
>>> reported_result("QVQLVESGGGLVQAGGSLRLSCAASGFTIQRYAMGWSRQAPGKERELVAAITSGGSTYYADSVKGRFTISRDNAKNTVYLQMNSLKPEDTAVYYCAAYYRGRAYISYGYWGQGTQVTVSS")
"high polyreactivity"
>>> reported_result("QVQLVESGGGLVQAGGSLRLSCAASGRILGWNAMGWYRQAPGKERELVAAISTSGTDTYYADSVKGRFTISSDNAKNTVYLQMNCLIPEDTAVYYCAADTVTIYWGLSVSYGCWGQGTQVTVSS")
"low polyreactivity"

For each of the sequences below, note its polyreactivity (PSR sort gate).
1. QVQLVESGGVLVQAGGSLRLSCAASGRTFYGYAMGWNRQAPGKERYLVAAIDIDVGNTYYADSVKGRFTISRDNAKNTVYLQMNSLKPEDTAVYYCAAEIPSWWLPALFRYDYWGQGTQVTVSS
2. QVQLVESGGGLVQAGGSLRLSCAASGRTFWYYAMGWYRQAPGKEREFVAAISWSGGSTYYADSVKGRFTISRDNAKNTVYLQMNSLKPEDTAVYYCAADGYDSSQFYYWGQGTQVTVSS

Output line:
1: low polyreactivity; 2: low polyreactivity
